target_of_assay: T1, recombinant human PD-1 expressed with a C-terminal myc-myc-hexahistidine tag (human)
T1 construct: monomeric; also called hPD-1-MMH; human PD-1-MMH
experiment_summary: SPR, mAb captured, 37C;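 note: rate constants from fitting sensorgrams to a 1:1 binding model, KD derived as kd divided by ka and half-life as ln2/(60·kd)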
reported_property: t½ (min)

binder	reported_property	val
H2aM7796N (antibody, mouse IgG2a, V domains shown, Human variable regions, mouse IgG2a Fc; also called H2M7796N) VH: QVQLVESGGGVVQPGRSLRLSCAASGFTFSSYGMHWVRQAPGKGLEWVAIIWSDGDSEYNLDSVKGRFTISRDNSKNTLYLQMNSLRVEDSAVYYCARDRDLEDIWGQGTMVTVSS VL: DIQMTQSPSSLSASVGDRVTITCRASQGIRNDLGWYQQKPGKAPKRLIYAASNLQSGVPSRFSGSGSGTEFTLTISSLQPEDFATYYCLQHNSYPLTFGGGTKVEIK	t½	0.7
H2aM7798N (antibody, mouse IgG2a, V domains shown, Human variable regions, mouse IgG2a Fc; also called H2M7798N) VH: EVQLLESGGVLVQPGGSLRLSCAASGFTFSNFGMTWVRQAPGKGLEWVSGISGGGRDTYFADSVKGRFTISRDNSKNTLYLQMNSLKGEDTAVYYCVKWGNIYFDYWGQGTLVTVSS VL: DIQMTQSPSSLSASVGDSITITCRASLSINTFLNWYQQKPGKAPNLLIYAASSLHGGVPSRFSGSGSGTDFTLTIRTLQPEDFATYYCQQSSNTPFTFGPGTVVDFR	t½	18
H4H7798N (antibody, human IgG4 S228P, kappa, V domains shown) VH: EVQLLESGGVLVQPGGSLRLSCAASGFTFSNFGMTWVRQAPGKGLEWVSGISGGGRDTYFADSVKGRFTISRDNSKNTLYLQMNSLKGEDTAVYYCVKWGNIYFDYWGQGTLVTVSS VL: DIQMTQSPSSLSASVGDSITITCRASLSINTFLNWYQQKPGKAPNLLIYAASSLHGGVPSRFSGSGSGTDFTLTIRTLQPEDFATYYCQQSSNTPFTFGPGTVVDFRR	t½	7
